Data origin: the NIST ThermoML archive (doi:10.1021/je900550v)

measurement-setup: 330.66 K; 101.33 kPa; Liquid; Vibrating tube method
Listed next: entries and their corresponding mass density.
Quick reminder: number only, in kg/m3, skip the unit.

In the examples that follow, each entry is paired with its recorded mass density.
compound	mass density (kg/m3)
C[NH2+]CCO.O=C[O-] [2-hydroxy-N-methylethanaminium formate]	1110.25
CCCC(=O)[O-].C[NH2+]CCO [N-methyl-2-hydroxyethylammonium butanoate]	1017.01
CCCCC(=O)[O-].C[NH2+]CCO [2-hydroxy-N-methylethanaminium pentanoate]	993.999
CCC(=O)[O-].C[NH2+]CCO [2-hydroxy-N-methylethanaminium propionate]	1049.73
CC(=O)[O-].C[NH2+]CCO [N-methyl-2-hydroxyethylammonium acetate]	1080.92

Using the record for CC(C)C(=O)[O-].C[NH2+]CCO [2-hydroxy-N-methylethanaminium isobutyrate] , report its mass density.
1021.98

* * *

measurement-setup: 316.66 K; 101.33 kPa; Liquid; Pulse-echo method
Numbers after ± are expanded uncertainties.
readout-name: speed of sound
Kindly report the value followed by its unit.

In the examples that follow, each entry is paired with its recorded speed of sound.
compound	value
CCCC(=O)[O-].C[NH2+]CCO [N-methyl-2-hydroxyethylammonium butanoate]	1556.7 ± 2.1 m/s
CCCCC(=O)[O-].C[NH2+]CCO [2-hydroxy-N-methylethanaminium pentanoate]	1491.5 ± 2.1 m/s
C[NH2+]CCO.O=C[O-] [2-hydroxy-N-methylethanaminium formate]	1779.2 ± 2.2 m/s

Using the record for CC(C)C(=O)[O-].C[NH2+]CCO [2-hydroxy-N-methylethanaminium isobutyrate] , report its speed of sound.
1559.1 ± 2.1 m/s

Using the record for CCC(=O)[O-].C[NH2+]CCO [2-hydroxy-N-methylethanaminium propionate] , report its speed of sound.
1635.4 ± 2.1 m/s

* * *

measurement-setup: 338.15 K; 101.33 kPa; Liquid; Vibrating tube method
Listed next: entries and their corresponding mass density.
Quick reminder: number only, in kg/m3, skip the unit.

compound	readout-name	value
CC(=O)[O-].C[NH2+]CCO [N-methyl-2-hydroxyethylammonium acetate]	mass density	1076.16

Using the record for CCCCC(=O)[O-].C[NH2+]CCO [2-hydroxy-N-methylethanaminium pentanoate] , report its mass density.
988.703

Using the record for C[NH2+]CCO.O=C[O-] [2-hydroxy-N-methylethanaminium formate] , report its mass density.
1106.43

* * *

Listed next: entries and their corresponding mass density.
measurement-setup: 279.15 K; 101.33 kPa; Liquid; Vibrating tube method
Quick reminder: number only, in kg/m3, skip the unit.

In the examples that follow, each entry is paired with its recorded mass density.
molecule	mass density (kg/m3)
CCC(=O)[O-].C[NH2+]CCO [2-hydroxy-N-methylethanaminium propionate]	1083.63
CCCC(=O)[O-].C[NH2+]CCO [N-methyl-2-hydroxyethylammonium butanoate]	1052.04
CC(C)C(=O)[O-].C[NH2+]CCO [2-hydroxy-N-methylethanaminium isobutyrate]	1055.48

Using the record for CC(=O)[O-].C[NH2+]CCO [N-methyl-2-hydroxyethylammonium acetate] , report its mass density.
1112.23

Using the record for CCCCC(=O)[O-].C[NH2+]CCO [2-hydroxy-N-methylethanaminium pentanoate] , report its mass density.
1029.01

Using the record for C[NH2+]CCO.O=C[O-] [2-hydroxy-N-methylethanaminium formate] , report its mass density.
1138.85

* * *

measurement-setup: 334.16 K; 101.33 kPa; Liquid; Pulse-echo method
readout-name: speed of sound (m/s)
Quick reminder: number only, in m/s, skip the unit.

compound	value
CC(C)C(=O)[O-].C[NH2+]CCO [2-hydroxy-N-methylethanaminium isobutyrate]	1509.1
CCCC(=O)[O-].C[NH2+]CCO [N-methyl-2-hydroxyethylammonium butanoate]	1501.7
C[NH2+]CCO.O=C[O-] [2-hydroxy-N-methylethanaminium formate]	1745.7

Using the record for CCCCC(=O)[O-].C[NH2+]CCO [2-hydroxy-N-methylethanaminium pentanoate] , report its speed of sound.
1437.8

Using the record for CCC(=O)[O-].C[NH2+]CCO [2-hydroxy-N-methylethanaminium propionate] , report its speed of sound.
1582.7

* * *

Listed next: entries and their corresponding speed of sound.
measurement-setup: 298.4 K; 101.33 kPa; Liquid; Pulse-echo method
Quick reminder: number only, in m/s, skip the unit.

In the examples that follow, each entry is paired with its recorded speed of sound.
molecule	units-text	speed of sound
CCC(=O)[O-].C[NH2+]CCO [2-hydroxy-N-methylethanaminium propionate]	m/s	1689.3
CCCC(=O)[O-].C[NH2+]CCO [N-methyl-2-hydroxyethylammonium butanoate]	m/s	1613.8
CC(C)C(=O)[O-].C[NH2+]CCO [2-hydroxy-N-methylethanaminium isobutyrate]	m/s	1610.6

Using the record for C[NH2+]CCO.O=C[O-] [2-hydroxy-N-methylethanaminium formate] , report its speed of sound.
1814.8

Using the record for CCCCC(=O)[O-].C[NH2+]CCO [2-hydroxy-N-methylethanaminium pentanoate] , report its speed of sound.
1548

* * *

measurement-setup: 287.15 K; 101.33 kPa; Liquid; Vibrating tube method
Numbers after ± are expanded uncertainties.
readout-name: mass density
Kindly report the value followed by its unit.

In the examples that follow, each entry is paired with its recorded mass density.
compound	readout-name	value
CC(C)C(=O)[O-].C[NH2+]CCO [2-hydroxy-N-methylethanaminium isobutyrate]	mass density	1050.33 ± 2.2 kg/m3
CCC(=O)[O-].C[NH2+]CCO [2-hydroxy-N-methylethanaminium propionate]	mass density	1078.44 ± 2.2 kg/m3
CC(=O)[O-].C[NH2+]CCO [N-methyl-2-hydroxyethylammonium acetate]	mass density	1107.41 ± 2.2 kg/m3
C[NH2+]CCO.O=C[O-] [2-hydroxy-N-methylethanaminium formate]	mass density	1134.39 ± 2.2 kg/m3
CCCCC(=O)[O-].C[NH2+]CCO [2-hydroxy-N-methylethanaminium pentanoate]	mass density	1023.66 ± 2.2 kg/m3

Now for a further compound.
Using the record for CCCC(=O)[O-].C[NH2+]CCO [N-methyl-2-hydroxyethylammonium butanoate] , report its mass density.
1046.68 ± 2.2 kg/m3

* * *

measurement-setup: 300.9 K; 101.33 kPa; Liquid; Vibrating tube method
readout-name: mass density (kg/m3)
Quick reminder: number only, in kg/m3, skip the unit.

compound	mass density [kg/m3]
CC(C)C(=O)[O-].C[NH2+]CCO [2-hydroxy-N-methylethanaminium isobutyrate]	1041.61
C[NH2+]CCO.O=C[O-] [2-hydroxy-N-methylethanaminium formate]	1126.71
CCCC(=O)[O-].C[NH2+]CCO [N-methyl-2-hydroxyethylammonium butanoate]	1037.37

Using the record for CC(=O)[O-].C[NH2+]CCO [N-methyl-2-hydroxyethylammonium acetate] , report its mass density.
1099.19

Using the record for CCC(=O)[O-].C[NH2+]CCO [2-hydroxy-N-methylethanaminium propionate] , report its mass density.
1069.51

Using the record for CCCCC(=O)[O-].C[NH2+]CCO [2-hydroxy-N-methylethanaminium pentanoate] , report its mass density.
1014.36

* * *

measurement-setup: 287.4 K; 101.33 kPa; Liquid; Vibrating tube method
Listed next: entries and their corresponding mass density.
Quick reminder: number only, in kg/m3, skip the unit.

In the examples that follow, each entry is paired with its recorded mass density.
compound	mass density (kg/m3)
CCCCC(=O)[O-].C[NH2+]CCO [2-hydroxy-N-methylethanaminium pentanoate]	1023.49
CC(=O)[O-].C[NH2+]CCO [N-methyl-2-hydroxyethylammonium acetate]	1107.26
C[NH2+]CCO.O=C[O-] [2-hydroxy-N-methylethanaminium formate]	1134.25
CCC(=O)[O-].C[NH2+]CCO [2-hydroxy-N-methylethanaminium propionate]	1078.28
CC(C)C(=O)[O-].C[NH2+]CCO [2-hydroxy-N-methylethanaminium isobutyrate]	1050.17

Now for a further compound.
Using the record for CCCC(=O)[O-].C[NH2+]CCO [N-methyl-2-hydroxyethylammonium butanoate] , report its mass density.
1046.51

* * *

Listed next: entries and their corresponding speed of sound.
measurement-setup: 282.4 K; 101.33 kPa; Liquid; Pulse-echo method
Quick reminder: number only, in m/s, skip the unit.

In the examples that follow, each entry is paired with its recorded speed of sound.
compound	speed of sound [m/s]
C[NH2+]CCO.O=C[O-] [2-hydroxy-N-methylethanaminium formate]	1846.3
CC(C)C(=O)[O-].C[NH2+]CCO [2-hydroxy-N-methylethanaminium isobutyrate]	1657
CCC(=O)[O-].C[NH2+]CCO [2-hydroxy-N-methylethanaminium propionate]	1738.2
CCCC(=O)[O-].C[NH2+]CCO [N-methyl-2-hydroxyethylammonium butanoate]	1667.4

Now for a further compound.
Using the record for CCCCC(=O)[O-].C[NH2+]CCO [2-hydroxy-N-methylethanaminium pentanoate] , report its speed of sound.
1601

* * *

measurement-setup: 323.15 K; 101.33 kPa; Liquid
readout-name: viscosity (mPa·s)
Quick reminder: number only, in mPa·s, skip the unit.

Using the record for CCC(=O)[O-].C[NH2+]CCO [2-hydroxy-N-methylethanaminium propionate] , report its viscosity.
55.1

* * *

measurement-setup: 294.65 K; 101.33 kPa; Liquid; Pulse-echo method
readout-name: speed of sound (m/s)
Quick reminder: number only, in m/s, skip the unit.

compound	value
CCC(=O)[O-].C[NH2+]CCO [2-hydroxy-N-methylethanaminium propionate]	1700.4
C[NH2+]CCO.O=C[O-] [2-hydroxy-N-methylethanaminium formate]	1822.2
CCCCC(=O)[O-].C[NH2+]CCO [2-hydroxy-N-methylethanaminium pentanoate]	1559.9

Using the record for CCCC(=O)[O-].C[NH2+]CCO [N-methyl-2-hydroxyethylammonium butanoate] , report its speed of sound.
1625.7

Using the record for CC(C)C(=O)[O-].C[NH2+]CCO [2-hydroxy-N-methylethanaminium isobutyrate] , report its speed of sound.
1621.2
